test system: 596521-263-R-J1-PDC complex spheroid growth; assay: Anticancer human tumor 596521-263-R-J1-PDC patient-derived soft tissue sarcoma cell line growth inhibition [Asc]; details: second compound 0.0316 µM; first compound 0.0316 µM; stronger effect = lower value;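 also: spheroids exposed to compounds for 7 days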
assay.metric: viability, T/C (%)
The reply should contain only the number, in %.

INSERT INTO measurements (molecule, assay_metric, assay_result) VALUES
  ('NC1CCC(NC2CC2c2ccccc2)CC1 (stereo unspecified) + Cc1c(S(C)(=O)=O)c(-c2cc(F)cc(N3CCN(c4ccc(NS(=O)(=O)c5ccc(NC(CCN6CCC(C(=O)OCCCP(=O)(O)O)CC6)CSc6ccccc6)c(S(=O)(=O)C(F)(F)F)c5)cc4)CC3)c2)c(-c2ccc(Cl)cc2)n1C(C)C', 'viability, T/C', 89.2),
  ('C=CC(=O)N1CCN(c2nc(=O)n(-c3c(C)ccnc3C(C)C)c3nc(-c4c(O)cccc4F)c(F)cc23)C(C)C1 (stereo unspecified) + Cc1c(S(C)(=O)=O)c(-c2cc(F)cc(N3CCN(c4ccc(NS(=O)(=O)c5ccc(NC(CCN6CCC(C(=O)OCCCP(=O)(O)O)CC6)CSc6ccccc6)c(S(=O)(=O)C(F)(F)F)c5)cc4)CC3)c2)c(-c2ccc(Cl)cc2)n1C(C)C', 'viability, T/C', 83.2),
  ('O=C(c1cc(Cc2n[nH]c(=O)c3ccccc23)ccc1F)N1CCN(C(=O)C2CC2)CC1 + Cc1c(S(C)(=O)=O)c(-c2cc(F)cc(N3CCN(c4ccc(NS(=O)(=O)c5ccc(NC(CCN6CCC(C(=O)OCCCP(=O)(O)O)CC6)CSc6ccccc6)c(S(=O)(=O)C(F)(F)F)c5)cc4)CC3)c2)c(-c2ccc(Cl)cc2)n1C(C)C', 'viability, T/C', 100),
  ('CNC(C)C(=O)NC1CN(S(=O)(=O)c2cccc(S(=O)(=O)N3CCC4CCC(C(=O)NC(c5ccccc5)c5ccccc5)N4C(=O)C(NC(=O)C(C)NC)C3)c2)CCC2CCC(C(=O)NC(c3ccccc3)c3ccccc3)N2C1=O (stereo unspecified) + Cc1c(S(C)(=O)=O)c(-c2cc(F)cc(N3CCN(c4ccc(NS(=O)(=O)c5ccc(NC(CCN6CCC(C(=O)OCCCP(=O)(O)O)CC6)CSc6ccccc6)c(S(=O)(=O)C(F)(F)F)c5)cc4)CC3)c2)c(-c2ccc(Cl)cc2)n1C(C)C', 'viability, T/C', 75.4),
  ('Cn1ncnc1[C@H]1c2n[nH]c(=O)c3cc(F)cc(c23)N[C@@H]1c1ccc(F)cc1 + Cc1c(S(C)(=O)=O)c(-c2cc(F)cc(N3CCN(c4ccc(NS(=O)(=O)c5ccc(NC(CCN6CCC(C(=O)OCCCP(=O)(O)O)CC6)CSc6ccccc6)c(S(=O)(=O)C(F)(F)F)c5)cc4)CC3)c2)c(-c2ccc(Cl)cc2)n1C(C)C', 'viability, T/C', 87.4);

# ---- query molecule ----
Record request: viability, T/C value, item Cn1ncnc1[C@H]1c2n[nH]c(=O)c3cc(F)cc(c23)N[C@@H]1c1ccc(F)cc1 + CNC(C)C(=O)NC1CN(S(=O)(=O)c2cccc(S(=O)(=O)N3CCC4CCC(C(=O)NC(c5ccccc5)c5ccccc5)N4C(=O)C(NC(=O)C(C)NC)C3)c2)CCC2CCC(C(=O)NC(c3ccccc3)c3ccccc3)N2C1=O 64.1
